Tested on: FGFR1
Conditions: concentration: 1 μM, replicates: in singlicate; n = 1;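 note: KINOMEscan kinase panel screen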
%Inh listing for selected compounds.
ENDPOINT_LABEL: %Inh (%)

>  <COMPOUND_STRING>
O=C(Nc1cccc(-c2nn3ncccc3c2-c2ccnc(Nc3ccccc3)n2)c1)c1c(F)cccc1F

>  <ENDPOINT_LABEL>
%Inh

>  <REPORTED_VALUE>
0

$$$$
>  <COMPOUND_STRING>
CN(C)Cc1ccc(-c2ccc3c(Nc4ccc(Oc5ccccn5)cc4)ccnc3c2)o1

>  <ENDPOINT_LABEL>
%Inh

>  <REPORTED_VALUE>
0

$$$$
>  <COMPOUND_STRING>
CNC(=O)c1ccccc1Nc1nc(Nc2ccc(N3CCOCC3)cc2)ncc1Cl.Cl

>  <ENDPOINT_LABEL>
%Inh

>  <REPORTED_VALUE>
99.7

$$$$
>  <COMPOUND_STRING>
Cl.c1ccc(-c2ccc3c(Nc4ccc5[nH]ccc5c4)ccnc3c2)nc1

>  <ENDPOINT_LABEL>
%Inh

>  <REPORTED_VALUE>
63

$$$$

----------
Test system: EPHB1
Settings: concentration: 1 μM, replicates: in singlicate; n = 1

>  <MOLECULE>
Cn1cc(-c2[nH]c3cc(NC(=O)[C@H](N)C4CCCCC4)cc4c3c2C=NNC4=O)cn1

>  <OUTPUT_UNIT>
%

>  <%Inh>
15

$$$$
>  <MOLECULE>
FC(F)(F)c1ccc(/C=C/c2cncnc2Nc2ccc3[nH]c(Cc4ccccc4)nc3c2)cc1

>  <OUTPUT_UNIT>
%

>  <%Inh>
9

$$$$
>  <MOLECULE>
Cc1occc1-c1ncc(OC[C@@H](N)Cc2c[nH]c3ccccc23)cc1-c1ccc2[nH]nc(C)c2c1.O=C(O)C(F)(F)F

>  <OUTPUT_UNIT>
%

>  <%Inh>
10

$$$$
>  <MOLECULE>
COc1ccc(-c2coc3ccc(-c4nnc(SCc5ccc(OC)c(C(F)(F)F)c5)o4)cc23)cc1

>  <OUTPUT_UNIT>
%

>  <%Inh>
26

$$$$
>  <MOLECULE>
Cc1ccc(F)c(C(=O)Nc2cccc(-c3nn4ccccc4c3-c3ccnc(Nc4cccc(F)c4)n3)c2)c1F

>  <OUTPUT_UNIT>
%

>  <%Inh>
40

$$$$
>  <MOLECULE>
O=c1[nH]cc(-c2ccc(N3CCOCC3)cc2)c2sc(-c3cn[nH]c3)cc12

>  <OUTPUT_UNIT>
%

>  <%Inh>
6

$$$$
>  <MOLECULE>
Nc1ncc(-c2cccnc2)c2scc(-c3ccc4c(c3)CCN4C(=O)Cc3ccccc3)c12

>  <OUTPUT_UNIT>
%

>  <%Inh>
21

$$$$
>  <MOLECULE>
CCCCc1nn2ncccc2c1-c1ccnc(Nc2ccc(N3CCN(C)CC3)cc2)n1

>  <OUTPUT_UNIT>
%

>  <%Inh>
65

$$$$
>  <MOLECULE>
Cl.c1ccc(-c2ccc3c(Nc4ccc5[nH]ccc5c4)ccnc3c2)nc1

>  <OUTPUT_UNIT>
%

>  <%Inh>
11

$$$$
>  <MOLECULE>
O=C(Nc1n[nH]c2nc(-c3ccc(O)cc3)ccc12)C1CC1

>  <OUTPUT_UNIT>
%

>  <%Inh>
0

$$$$
>  <MOLECULE>
Oc1cc(Nc2ccnc3cc(I)ccc23)ccc1F

>  <OUTPUT_UNIT>
%

>  <%Inh>
39

$$$$
>  <MOLECULE>
COC(=O)Nc1nc2ccc(Oc3ccc(NC(=O)Nc4cc(C(F)(F)F)ccc4F)cc3)cc2n1C.Cl

>  <OUTPUT_UNIT>
%

>  <%Inh>
35

$$$$
>  <MOLECULE>
Nc1ncc(-c2ccc3nccc(-c4ccncc4)c3c2)cc1S(=O)(=O)N1CCOCC1

>  <OUTPUT_UNIT>
%

>  <%Inh>
1

$$$$
>  <MOLECULE>
Cl.Cl.NCC(NC(=O)c1cc(-c2ccccc2)c(-c2ccnc3[nH]ccc23)s1)c1ccccc1 (centres unmarked)

>  <OUTPUT_UNIT>
%

>  <%Inh>
16

$$$$
>  <MOLECULE>
Cc1ccc(C(=O)Nc2ccc(Nc3ccnc4cc(-c5nccs5)ccc34)cc2O)cc1.Cl

>  <OUTPUT_UNIT>
%

>  <%Inh>
11

$$$$
>  <MOLECULE>
COc1cccc(C(=O)Nc2cccc(Oc3ccc4nc(NC(=O)C5CC5)cn4n3)c2)c1

>  <OUTPUT_UNIT>
%

>  <%Inh>
87

$$$$
>  <MOLECULE>
COc1cc(Nc2ncc3c(C)nc(-c4cc5ccccc5[nH]4)n3n2)cc(OC)c1OC

>  <OUTPUT_UNIT>
%

>  <%Inh>
58

$$$$

----------
System: BMPR1B
Conditions: concentration: 1 μM, replicates: in singlicate; n = 1
ENDPOINT_LABEL: %Inh (%)

>  <COMPOUND>
Cl.Cl.NCC(C(=O)Nc1cc(Br)c(-c2ccnc3[nH]ccc23)s1)c1ccccc1 (stereo not shown) [GSK1269851]

>  <SYSTEM_TESTED>
BMPR1B

>  <OUTPUT_UNIT>
%

>  <REPORTED_VALUE>
0

$$$$
>  <COMPOUND>
O=C(Nc1n[nH]c2cc(-c3ccoc3)ccc12)C1CC1 [SB-738481]

>  <SYSTEM_TESTED>
BMPR1B

>  <OUTPUT_UNIT>
%

>  <REPORTED_VALUE>
21

$$$$
>  <COMPOUND>
Nc1ncc(-c2ccc3nccc(-c4ccncc4)c3c2)cc1S(=O)(=O)N1CCOCC1 [GSK1627798]

>  <SYSTEM_TESTED>
BMPR1B

>  <OUTPUT_UNIT>
%

>  <REPORTED_VALUE>
0

$$$$
>  <COMPOUND>
CN(C)S(=O)(=O)c1cc(-c2ccc3nccc(-c4cccc(S(N)(=O)=O)c4)c3c2)cnc1N [GSK1669921]

>  <SYSTEM_TESTED>
BMPR1B

>  <OUTPUT_UNIT>
%

>  <REPORTED_VALUE>
0

$$$$

----------
Test system: SNARK
Construct: gene NUAK2
Conditions: concentration: 1 μM, replicates: in singlicate; n = 1
With a cut-off of 10%, any %Inh strictly below it is called label 1; any %Inh meeting it or above is called label 0.

>  <COMPOUND>
Cn1cc(-c2ccc3c(c2)CCN3C(=O)Cc2cccc(Cl)c2)c2c(N)ncnc21

>  <CATEGORY>
label 0

$$$$
>  <COMPOUND>
CCS(=O)(=O)c1ccc(OC)c(Nc2nccc(-c3c(-c4cccc(NC(=O)c5c(F)cccc5F)c4)nn4ncccc34)n2)c1

>  <CATEGORY>
label 1

$$$$
>  <COMPOUND>
COc1cccc(NC(=O)NC2CCN(c3ccnc(Nc4cc(OC)c(OC)c(OC)c4)n3)C2)c1 (stereo not shown)

>  <CATEGORY>
label 0

$$$$
>  <COMPOUND>
COc1cc2c(cc1OCCN1CCNCC1)ncc1c3ccc(C#N)cc3[nH]c21

>  <CATEGORY>
label 0

$$$$
>  <COMPOUND>
Cc1ccc(C)c(NC(=O)NC2CCN(c3ccnc(Nc4ccc(F)cc4)n3)C2)c1 (stereo not shown)

>  <CATEGORY>
label 1

$$$$
>  <COMPOUND>
COc1cc(Nc2nccc(-c3c(-c4cccc(NC(=O)c5c(F)cccc5F)c4)nn4ccccc34)n2)cc(OC)c1OC

>  <CATEGORY>
label 0

$$$$
>  <COMPOUND>
CCn1c(-c2nonc2N)nc2c(C#CC(C)(C)O)ncc(OCCCCN)c21.O=C(O)C(F)(F)F.O=C(O)C(F)(F)F

>  <CATEGORY>
label 0

$$$$
>  <COMPOUND>
CNC(=O)c1ccccc1Nc1nc(Nc2ccc(N3CCOCC3)cc2)ncc1Cl.Cl

>  <CATEGORY>
label 0

$$$$
>  <COMPOUND>
COc1cc(Nc2ncc3c(C)nc(-c4cc5ccccc5[nH]4)n3n2)cc(OC)c1OC

>  <CATEGORY>
label 1

$$$$
>  <COMPOUND>
COC(=O)Nc1nc2cc(Oc3ccc(NC(=O)Nc4cc(C(F)(F)F)ccc4F)cn3)ccc2[nH]1.Cl.Cl

>  <CATEGORY>
label 0

$$$$
>  <COMPOUND>
Cc1ccc(F)c(C(=O)Nc2cccc(-c3nn4ccccc4c3-c3ccnc(Nc4cccc(F)c4)n3)c2)c1F

>  <CATEGORY>
label 0

$$$$
>  <COMPOUND>
O=C(O)C(F)(F)F.O=C(O)C(F)(F)F.O=c1[nH]ccc2nc(N[C@@H]3CCCNC3)nc(Nc3ccc(S(=O)(=O)N4CCOCC4)cc3)c12

>  <CATEGORY>
label 0

$$$$
>  <COMPOUND>
Cc1cccc(NC(=O)Nc2ccc(Oc3ncnc4ccn(C)c34)cc2)c1

>  <CATEGORY>
label 1

$$$$
>  <COMPOUND>
Nc1ncnc2c1nc(-c1ccccc1)n2-c1ccccc1

>  <CATEGORY>
label 0

$$$$
